Data origin: ChEMBL document CHEMBL5113502

SYSTEM TESTED: Histone deacetylase 4 (Homo sapiens, UniProt P56524)
Sequence (P56524 whole entry): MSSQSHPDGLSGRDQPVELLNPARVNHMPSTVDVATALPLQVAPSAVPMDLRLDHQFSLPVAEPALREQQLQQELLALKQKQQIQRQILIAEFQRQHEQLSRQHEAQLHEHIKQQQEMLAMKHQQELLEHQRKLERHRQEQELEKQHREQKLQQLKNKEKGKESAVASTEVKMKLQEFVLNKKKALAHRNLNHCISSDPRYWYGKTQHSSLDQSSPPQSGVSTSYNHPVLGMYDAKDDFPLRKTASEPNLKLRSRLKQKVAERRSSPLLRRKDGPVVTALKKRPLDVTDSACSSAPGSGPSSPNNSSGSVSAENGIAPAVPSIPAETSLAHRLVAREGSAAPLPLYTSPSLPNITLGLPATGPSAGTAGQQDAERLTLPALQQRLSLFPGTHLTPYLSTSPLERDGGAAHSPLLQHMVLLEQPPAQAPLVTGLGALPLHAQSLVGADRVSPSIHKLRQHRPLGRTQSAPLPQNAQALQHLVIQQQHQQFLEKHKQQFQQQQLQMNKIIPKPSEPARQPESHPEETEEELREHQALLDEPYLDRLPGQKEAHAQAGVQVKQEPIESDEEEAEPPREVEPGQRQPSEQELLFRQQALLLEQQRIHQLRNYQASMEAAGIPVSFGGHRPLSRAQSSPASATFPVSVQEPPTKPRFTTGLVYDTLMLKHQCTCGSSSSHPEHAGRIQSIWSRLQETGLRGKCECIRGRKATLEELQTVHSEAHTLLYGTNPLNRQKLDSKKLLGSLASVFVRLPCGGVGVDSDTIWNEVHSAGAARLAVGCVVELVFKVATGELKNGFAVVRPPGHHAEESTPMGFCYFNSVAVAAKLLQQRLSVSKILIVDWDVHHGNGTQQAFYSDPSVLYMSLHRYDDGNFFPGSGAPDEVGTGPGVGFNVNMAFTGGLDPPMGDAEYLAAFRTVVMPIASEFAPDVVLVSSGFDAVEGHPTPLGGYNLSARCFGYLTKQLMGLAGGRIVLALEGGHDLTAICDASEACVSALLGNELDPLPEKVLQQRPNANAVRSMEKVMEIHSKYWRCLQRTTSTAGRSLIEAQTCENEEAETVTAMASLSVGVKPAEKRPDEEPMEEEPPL
READOUT: IC50 (nM)
Answers are plain numbers, in nM.

Measured IC50 of O=C(/C=C/c1ccc(CNc2ccc3nc4n(c(=O)c3c2)CCCCC4)cc1)NO : 1630

###

SYSTEM TESTED: Protein deacetylase HDAC6 (Homo sapiens, UniProt Q9UBN7)
Sequence (Q9UBN7 whole entry): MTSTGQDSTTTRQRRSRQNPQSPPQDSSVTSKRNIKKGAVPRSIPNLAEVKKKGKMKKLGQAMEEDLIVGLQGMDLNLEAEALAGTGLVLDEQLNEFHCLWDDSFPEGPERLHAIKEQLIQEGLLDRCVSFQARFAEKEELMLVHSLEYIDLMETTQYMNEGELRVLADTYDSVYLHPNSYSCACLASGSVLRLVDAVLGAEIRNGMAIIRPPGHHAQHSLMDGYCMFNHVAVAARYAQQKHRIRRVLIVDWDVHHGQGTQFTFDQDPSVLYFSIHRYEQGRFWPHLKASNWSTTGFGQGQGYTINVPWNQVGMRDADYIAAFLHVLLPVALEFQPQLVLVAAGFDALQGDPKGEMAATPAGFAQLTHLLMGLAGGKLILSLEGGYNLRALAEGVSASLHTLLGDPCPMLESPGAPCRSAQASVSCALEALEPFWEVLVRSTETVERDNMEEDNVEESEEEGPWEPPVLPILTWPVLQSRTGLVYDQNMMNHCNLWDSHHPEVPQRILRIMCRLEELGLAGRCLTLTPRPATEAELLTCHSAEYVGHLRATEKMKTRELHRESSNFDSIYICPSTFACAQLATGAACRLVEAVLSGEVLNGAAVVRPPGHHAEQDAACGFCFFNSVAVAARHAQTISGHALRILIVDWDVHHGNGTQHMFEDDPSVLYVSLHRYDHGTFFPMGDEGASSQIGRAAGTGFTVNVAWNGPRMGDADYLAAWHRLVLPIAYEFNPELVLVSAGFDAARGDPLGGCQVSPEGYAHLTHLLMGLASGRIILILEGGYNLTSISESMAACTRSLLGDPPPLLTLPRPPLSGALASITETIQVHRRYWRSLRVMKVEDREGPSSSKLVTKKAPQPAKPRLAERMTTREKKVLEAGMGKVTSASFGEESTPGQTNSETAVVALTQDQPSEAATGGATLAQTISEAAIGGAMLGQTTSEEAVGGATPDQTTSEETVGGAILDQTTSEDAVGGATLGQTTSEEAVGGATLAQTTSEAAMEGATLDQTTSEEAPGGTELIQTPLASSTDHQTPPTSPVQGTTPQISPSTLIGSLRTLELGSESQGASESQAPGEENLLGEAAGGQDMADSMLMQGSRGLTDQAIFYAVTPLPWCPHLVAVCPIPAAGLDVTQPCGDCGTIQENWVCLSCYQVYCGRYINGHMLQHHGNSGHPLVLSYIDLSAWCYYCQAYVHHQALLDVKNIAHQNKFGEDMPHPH
READOUT: IC50 (nM)
Numbers only, in nM.

The molecule O=C(/C=C/c1ccc(CNc2ccc3nc4n(c(=O)c3c2)CCCCC4)cc1)NO showed IC50 equal to 12.9

###

SYSTEM TESTED: Histone deacetylase 8 (Homo sapiens, UniProt Q9BY41)
Sequence (Q9BY41 whole entry): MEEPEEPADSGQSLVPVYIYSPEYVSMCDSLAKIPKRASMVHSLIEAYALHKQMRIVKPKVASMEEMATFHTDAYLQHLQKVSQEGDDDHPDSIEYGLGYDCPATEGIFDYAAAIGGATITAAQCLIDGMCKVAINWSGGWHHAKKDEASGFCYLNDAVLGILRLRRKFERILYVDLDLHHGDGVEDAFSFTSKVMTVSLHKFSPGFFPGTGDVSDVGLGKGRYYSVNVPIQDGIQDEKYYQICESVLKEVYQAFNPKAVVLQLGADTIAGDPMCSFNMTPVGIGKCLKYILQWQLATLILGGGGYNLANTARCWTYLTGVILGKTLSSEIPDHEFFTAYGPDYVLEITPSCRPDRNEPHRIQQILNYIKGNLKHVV
READOUT: IC50 (µM)
Numbers only, in µM.

Record O=C(/C=C/c1ccc(CNc2ccc3nc4n(c(=O)c3c2)CCCCC4)cc1)NO , field IC50: 0.178

###

SYSTEM TESTED: Histone deacetylase 9 (Homo sapiens, UniProt Q9UKV0)
Sequence (Q9UKV0 whole entry): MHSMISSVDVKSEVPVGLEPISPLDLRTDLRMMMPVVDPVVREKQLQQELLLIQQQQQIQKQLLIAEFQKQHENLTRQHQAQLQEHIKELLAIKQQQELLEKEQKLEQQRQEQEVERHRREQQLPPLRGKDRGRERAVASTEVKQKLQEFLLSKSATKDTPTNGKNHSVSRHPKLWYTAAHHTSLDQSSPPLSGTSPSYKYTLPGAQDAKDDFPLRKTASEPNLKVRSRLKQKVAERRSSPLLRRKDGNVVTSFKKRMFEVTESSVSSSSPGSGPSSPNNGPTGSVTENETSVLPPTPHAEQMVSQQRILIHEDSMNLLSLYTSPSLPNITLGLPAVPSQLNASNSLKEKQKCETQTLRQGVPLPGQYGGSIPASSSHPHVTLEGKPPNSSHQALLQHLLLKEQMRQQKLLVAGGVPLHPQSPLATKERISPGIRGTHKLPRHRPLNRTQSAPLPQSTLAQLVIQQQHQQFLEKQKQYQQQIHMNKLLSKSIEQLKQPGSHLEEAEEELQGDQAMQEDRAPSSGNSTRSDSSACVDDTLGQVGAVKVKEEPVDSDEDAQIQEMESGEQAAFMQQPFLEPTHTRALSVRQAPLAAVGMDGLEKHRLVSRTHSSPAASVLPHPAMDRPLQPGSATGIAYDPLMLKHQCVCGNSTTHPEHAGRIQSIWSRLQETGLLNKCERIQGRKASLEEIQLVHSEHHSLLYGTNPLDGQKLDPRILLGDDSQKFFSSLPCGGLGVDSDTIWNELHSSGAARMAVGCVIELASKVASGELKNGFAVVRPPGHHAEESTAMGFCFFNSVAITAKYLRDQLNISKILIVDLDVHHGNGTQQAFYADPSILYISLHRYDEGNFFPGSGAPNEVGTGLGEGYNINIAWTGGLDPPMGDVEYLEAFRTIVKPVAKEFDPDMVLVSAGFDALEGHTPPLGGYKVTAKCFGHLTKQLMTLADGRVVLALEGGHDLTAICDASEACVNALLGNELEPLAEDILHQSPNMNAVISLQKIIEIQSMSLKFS
READOUT: IC50 (µM)
One number for each entry, in µM.

// returns IC50 for O=C(/C=C/c1ccc(CNc2ccc3nc4n(c(=O)c3c2)CCCCC4)cc1)NO with Histone deacetylase 9 (Homo sapiens, UniProt Q9UKV0); value = 4.32
